Molecular target: Fatty-acid amide hydrolase 1 (Homo sapiens, UniProt O00519)
Sequence (O00519 whole entry): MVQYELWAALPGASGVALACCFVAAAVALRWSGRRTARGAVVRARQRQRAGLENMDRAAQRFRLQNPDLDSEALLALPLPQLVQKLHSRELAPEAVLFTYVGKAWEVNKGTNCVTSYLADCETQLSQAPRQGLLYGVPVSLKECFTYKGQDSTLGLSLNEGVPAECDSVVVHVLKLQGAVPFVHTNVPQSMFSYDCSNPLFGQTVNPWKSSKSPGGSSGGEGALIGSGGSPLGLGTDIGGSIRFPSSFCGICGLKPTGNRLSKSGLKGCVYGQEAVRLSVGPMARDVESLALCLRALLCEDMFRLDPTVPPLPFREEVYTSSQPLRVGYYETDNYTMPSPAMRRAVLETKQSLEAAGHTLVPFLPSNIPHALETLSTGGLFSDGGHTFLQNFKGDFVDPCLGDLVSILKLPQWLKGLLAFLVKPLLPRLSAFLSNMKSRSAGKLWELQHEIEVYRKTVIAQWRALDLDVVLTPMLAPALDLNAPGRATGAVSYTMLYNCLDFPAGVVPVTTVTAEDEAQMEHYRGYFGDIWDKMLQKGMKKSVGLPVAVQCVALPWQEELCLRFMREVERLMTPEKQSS
Assay: Inhibition of FAAH (unknown origin)
pIC50: −log10 of the molar value.
property-label: pIC50

> print(dat)
                                   molecule                               target.desc  property.label  observed.result
1  CCCCCOc1ccccc1-c1cc(C(=O)NC23CC4CC(CC(C4)C2)C3)no1  Fatty-acid amide hydrolase 1 (Homo sapiens, UniProt O00519)           pIC50           < 5.00

###

Target: Fatty-acid amide hydrolase 1 (Rattus norvegicus)
Sequence (P97612 whole entry): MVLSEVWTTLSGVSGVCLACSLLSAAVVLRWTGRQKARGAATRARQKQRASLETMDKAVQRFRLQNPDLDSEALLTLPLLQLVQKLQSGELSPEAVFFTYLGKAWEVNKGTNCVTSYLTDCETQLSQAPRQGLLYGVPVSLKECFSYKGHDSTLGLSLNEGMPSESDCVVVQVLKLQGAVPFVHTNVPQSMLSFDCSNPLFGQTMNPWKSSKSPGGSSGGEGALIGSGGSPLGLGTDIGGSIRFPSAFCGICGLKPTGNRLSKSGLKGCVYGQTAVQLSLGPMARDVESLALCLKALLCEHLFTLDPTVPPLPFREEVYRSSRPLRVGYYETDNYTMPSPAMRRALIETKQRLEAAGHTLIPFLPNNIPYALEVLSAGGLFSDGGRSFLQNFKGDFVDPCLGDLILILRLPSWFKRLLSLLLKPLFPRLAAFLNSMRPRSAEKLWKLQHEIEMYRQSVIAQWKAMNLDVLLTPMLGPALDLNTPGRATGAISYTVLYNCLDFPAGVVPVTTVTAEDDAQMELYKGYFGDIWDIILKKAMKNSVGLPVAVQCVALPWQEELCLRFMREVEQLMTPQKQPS
Assay: Inhibition of rat FAAH using [3H]-AEA as substrate by liquid chromatography-mass spectrometry
pIC50: −log10 of the molar value.
Listed here: items and their measured pIC50.
property-label: pIC50

> print(dat)
                                   molecule  observed.result
1    CCCCCCNC(=O)n1cc(OC(C)=O)c(=O)[nH]c1=O             7.60
2  CC(=O)Oc1cn(C(=O)NCCCCCCCc2ccccc2)c(=O)[nH]c1=O             8.52
3        CCCCCCNC(=O)n1cc(C#N)c(=O)[nH]c1=O             7.60
4  CC(=O)Oc1cn(C(=O)NCCCCc2ccc(-c3ccccc3)cc2)c(=O)[nH]c1=O             9.10
5          CCCCCCNC(=O)n1cc(F)c(=O)[nH]c1=O             7.60
6             CCCCCCNC(=O)n1ccc(=O)[nH]c1=O             6.31
7  CC(=O)Oc1cn(C(=O)NCCCc2ccc(-c3ccccc3)cc2)c(=O)[nH]c1=O             9.52
